The values you see were collected from the RNAGym collection of RNA variant scans (doi:10.7554/elife.90254).

B1: LINE1-full (parent)
chain: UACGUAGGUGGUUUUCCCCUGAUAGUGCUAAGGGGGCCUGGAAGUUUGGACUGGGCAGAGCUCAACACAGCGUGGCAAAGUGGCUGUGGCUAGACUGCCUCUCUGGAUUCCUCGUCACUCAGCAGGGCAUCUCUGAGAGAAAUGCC

- Variants of: B1
- ASSAY OVERVIEW: self-cleavage, relative activity (ratio to wild type); higher = more cleavage; in vitro, sequencing; the parent is a self-cleaving ribozyme
READOUT TYPE: self-cleavage

RESIDUE CHANGE: U45C A117G
RESULT: 0

RESIDUE CHANGE: G4A U102G
RESULT: 0.26

RESIDUE CHANGE: U73C G127A
RESULT: 1.7

RESIDUE CHANGE: A22U A124G
RESULT: 0.47

RESIDUE CHANGE: U9C A69G
RESULT: 0.83

RESIDUE CHANGE: A42G C146U
RESULT: 1.18

RESIDUE CHANGE: A22G A117U
RESULT: 1.29

RESIDUE CHANGE: U112G A136C
RESULT: 0.61

RESIDUE CHANGE: A64G U143A
RESULT: 0.24

RESIDUE CHANGE: U87A U102C
RESULT: 0.08

RESIDUE CHANGE: C37A G58A
RESULT: 0.03
